# Tested on: 782815-120-R-J1-PDC complex spheroid viability
# run_description: Anticancer human tumor 782815-120-R-J1-PDC patient-derived colon adenocarcinoma cell line growth inhibition [RAS]
# experimental_setup: second compound 0.03 µM; first compound 0.0316 µM; hits give low values
reported_metric: viability, T/C (%)
Enter your answer as a number in %; do not include the unit.

Please fill in: viability, T/C reported for C[C@@H](NC(=O)c1ncnc(N)c1Cl)c1ncc(C(=O)Nc2cc(C(F)(F)F)c(Cl)cn2)s1 + CCn1c(-c2cc(N3CCN(C)CC3)cnc2C(C)OC)c2c3cc(ccc31)-c1csc(n1)CC(NC(=O)C1CC1C)C(=O)N1CCCC(N1)C(=O)OCC(C)(C)C2 = 25.8

Form field viability, T/C, entry C=CC(=O)N1CCN(c2nc(OCC3CCCN3C)nc3c(F)c(-c4nc(N)cc(C)c4C(F)(F)F)c(Cl)cc23)C(C)C1 (stereo unspecified) + CCn1c(-c2cc(N3CCN(C)CC3)cnc2C(C)OC)c2c3cc(ccc31)-c1csc(n1)CC(NC(=O)C1CC1C)C(=O)N1CCCC(N1)C(=O)OCC(C)(C)C2 : 17.9

###

# Test system: 782815-120-R-J1-PDC complex spheroid viability
# run_description: Anticancer human tumor 782815-120-R-J1-PDC cell line growth inhibition [RAS]; active means viability on the fitted dose curve at most 10% of control; inactive means the rest;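 also: spheroids exposed to compounds for 7 days before reading; 100% = DMSO vehicle control viability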
# experimental_setup: second compound 1 µM; first compound 0.0949 µM
Assign a class; possible classes are T = active, F = inactive

Example entries and their recorded answers appear below.
compound | discrete_label
CCc1c2c(nc3ccc(O)cc13)-c1cc3c(c(=O)n1C2)COC(=O)[C@]3(O)CC + C=CC(=O)N1CCN(c2nc(OCC3CCCN3C)nc3c(F)c(-c4nc(N)cc(C)c4C(F)(F)F)c(Cl)cc23)C(C)C1 | T
CC1(C)CCC(Nc2ncc(C(F)(F)F)c(-c3c[nH]c4c(P(C)(C)=O)c(C#N)ccc34)n2)CN1 (centres undefined) + C=CC(=O)N1CCN(c2nc(OCC3CCCN3C)nc3c(F)c(-c4nc(N)cc(C)c4C(F)(F)F)c(Cl)cc23)C(C)C1 | F
CC1(C)CCC(Nc2ncc(C(F)(F)F)c(-c3c[nH]c4c(P(C)(C)=O)c(C#N)ccc34)n2)CN1 (centres undefined) + C#Cc1c(F)ccc2cc(O)cc(-c3ncc4c(N5CC6CCC(C5)N6)nc(OCC56CCCN5CC(F)C6)nc4c3F)c12 | F

Now let's try a different one.
Outcome? CCc1c2c(nc3ccc(O)cc13)-c1cc3c(c(=O)n1C2)COC(=O)[C@]3(O)CC + C#Cc1c(F)ccc2cc(O)cc(-c3ncc4c(N5CC6CCC(C5)N6)nc(OCC56CCCN5CC(F)C6)nc4c3F)c12
T

###

# System: 782815-120-R-J1-PDC complex spheroid viability
# run_description: Anticancer human tumor 782815-120-R-J1-PDC cell line growth inhibition [RAS];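 also: spheroids exposed to compounds for 7 days before reading; 100% = DMSO vehicle control viability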
# experimental_setup: second compound 0.0316 µM; first compound 0.01 µM; hits give low values
# Source text: RAS pathway inhibitors in Combinations in Complex Spheroids A high-throughput screen of multi-cell type tumor spheroids was designed to identify active combinations of RAS pathway inhibitors and targeted small molecules. Complex spheroids include a stromal component modeled by human endothelial cells (HUVEC) and fibroblasts modeled by human mesenchymal stem cells (MSCs). […] Compounds. […] If the clinical Cmax for an agent had not been determined, the highest concentration tested was 10 microM. […]
reported_metric: viability, T/C (%)
Express it in %; write the number only.

// solved cases for viability, T/C follow
compound | target_or_system | unit | numeric_value
C=CC(=O)Nc1cc(Nc2nccc(-c3cn(C)c4ccccc34)n2)c(OC)cc1N(C)CCN(C)C + C=CC(=O)N1CCN(c2nc(OCC3CCCN3C)nc3c(F)c(-c4nc(N)cc(C)c4C(F)(F)F)c(Cl)cc23)C(C)C1 | 782815-120-R-J1-PDC complex spheroid viability | % | 101
C=CC(=O)N1CCN(c2nc(OCC3CCCN3C)nc3c(F)c(-c4nc(N)cc(C)c4C(F)(F)F)c(Cl)cc23)C(C)C1 (stereo unspecified) + C#Cc1c(F)ccc2cc(O)cc(-c3ncc4c(N5CC6CCC(C5)N6)nc(OCC56CCCN5CC(F)C6)nc4c3F)c12 | 782815-120-R-J1-PDC complex spheroid viability | % | 86.9
O=C(c1ccc(F)c(F)c1Nc1ccc(I)cc1F)N1CC(O)([C@@H]2CCCCN2)C1 + C#Cc1c(F)ccc2cc(O)cc(-c3ncc4c(N5CC6CCC(C5)N6)nc(OCC56CCCN5CC(F)C6)nc4c3F)c12 | 782815-120-R-J1-PDC complex spheroid viability | % | 95
CC(C)n1nc(-c2ccc3oc(N)nc3c2)c2c(N)ncnc21 + C=CC(=O)N1CCN(c2nc(OCC3CCCN3C)nc3c(F)c(-c4nc(N)cc(C)c4C(F)(F)F)c(Cl)cc23)C(C)C1 | 782815-120-R-J1-PDC complex spheroid viability | % | 95.8
O=C(c1ccc(F)c(F)c1Nc1ccc(I)cc1F)N1CC(O)([C@@H]2CCCCN2)C1 + C=CC(=O)N1CCN(c2nc(OCC3CCCN3C)nc3c(F)c(-c4nc(N)cc(C)c4C(F)(F)F)c(Cl)cc23)C(C)C1 | 782815-120-R-J1-PDC complex spheroid viability | % | 79.5

With those in mind, consider the next compound.
According to the records, this compound CCN1CCN(Cc2ccc(Nc3ncc(F)c(-c4cc(F)c5nc(C)n(C(C)C)c5c4)n3)nc2)CC1 + C#Cc1c(F)ccc2cc(O)cc(-c3ncc4c(N5CC6CCC(C5)N6)nc(OCC56CCCN5CC(F)C6)nc4c3F)c12 displays viability, T/C of 105
